system: Ras-related protein Rab-2A (Canis lupus familiaris, UniProt P61105)
Sequence (P61105 whole entry): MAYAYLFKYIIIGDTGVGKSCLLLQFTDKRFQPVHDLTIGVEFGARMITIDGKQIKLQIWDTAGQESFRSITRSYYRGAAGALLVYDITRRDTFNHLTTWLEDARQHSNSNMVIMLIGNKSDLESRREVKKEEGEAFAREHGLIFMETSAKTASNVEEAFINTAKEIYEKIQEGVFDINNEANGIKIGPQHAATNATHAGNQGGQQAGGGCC
protocol: Rab2 wildtype GTP-binding inhibitors, SAR follow-up, biochemical, pyrazoline series, Bodipy-FL-GTP, flow cytometry, multiplex (AID 2045)
pEC50: −log10 of the molar value.
Reported pEC50 by item:

Cc1ccc(-c2cc(C(F)(F)F)nn2-c2ccc(S(N)(=O)=O)cc2)cc1; < 4.52
CCc1ccc(C2=NN(c3ccc(S(N)(=O)=O)cc3)C(c3ccc(F)cc3)C2)cc1 (centres undefined); < 4.52
O=[N+]([O-])c1cccc(C2C[C-](c3ccccc3)N=[N+]2c2ccccc2)c1 (centres undefined); < 4.52

// lookup pEC50 | system=Ras-related protein Rab-2A (Canis lupus familiaris, UniProt P61105) | key= Cc1ccccc1[N+]1=N[C-](c2ccccc2)CC1c1cccc([N+](=O)[O-])c1 (centres undefined)
< 4.52

====

system: Ras-related protein Rab-2A (Canis lupus familiaris)
protocol: Rab2 wildtype GTP-binding inhibitors, SAR follow-up, biochemical, pyrazoline series, Bodipy-FL-GTP, flow cytometry, multiplex (AID 2045)
settings: inactive by the depositor's call
pEC50: −log10 of the molar value.
Would you please tag the item 1 (yes) when its pEC50 is 7 or above, and 0 (no) when it is below?

Worked examples, 3 compounds total:
COc1ccc(C2=NN(c3ccc(S(N)(=O)=O)cc3)C(c3ccc(OC)cc3)C2)cc1 (stereo not given); 0 (no)
NS(=O)(=O)c1ccc(N2N=C(c3ccc(Cl)cc3)CC2c2ccccc2)cc1 (stereo not given); 1 (yes)
COc1ccc(C2CC(c3ccc(F)cc3)=NN2c2ccc(S(N)(=O)=O)cc2)cc1 (stereo not given); 1 (yes)

Attention now turns to another entry.
Exam item: decide whether the reported pEC50 for COc1ccc(C2=NN(c3cccc(F)c3)C(c3ccc(OC)cc3)C2)cc1 (stereo not given) is at least 7.
0 (no)
